Just for reference, patent US6653478B2 is where these values come from.

- study.target: human V1b receptor (Homo sapiens, UniProt P47901)
- Sequence (P47901 1-424): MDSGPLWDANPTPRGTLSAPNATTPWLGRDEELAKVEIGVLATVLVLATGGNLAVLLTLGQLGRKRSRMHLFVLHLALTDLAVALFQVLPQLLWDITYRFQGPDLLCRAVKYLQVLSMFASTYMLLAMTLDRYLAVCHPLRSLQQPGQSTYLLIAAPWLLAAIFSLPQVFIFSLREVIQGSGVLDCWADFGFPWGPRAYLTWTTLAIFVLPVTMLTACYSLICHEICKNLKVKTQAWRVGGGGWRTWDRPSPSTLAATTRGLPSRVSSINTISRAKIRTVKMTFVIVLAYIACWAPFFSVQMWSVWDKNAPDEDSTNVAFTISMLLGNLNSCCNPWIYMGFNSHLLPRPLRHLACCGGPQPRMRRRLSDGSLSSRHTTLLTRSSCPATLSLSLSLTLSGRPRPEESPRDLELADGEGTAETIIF
- test.method.notes: V1b binding assay (3H-AVP displacement, HEK-293 membranes)
- Design: expressed in transfected cells; host or cells: HEK-293 (membranes)
- assay.context: 1.0 μM compound; read-out: V1b@1.0, % Inh
quantity: inhibition at 1 µM (%)

1) CCOC(=O)C1CCN(CCCn2c(=O)n(C3CCN(C(=S)NC(c4ccccc4)c4ccccc4)CC3)c3ccccc32)CC1 :: 47

A. O=c1n(CCCN2CCCCC2)c2ccccc2n1C1CCN(C(=S)NCc2cccnc2)CC1
B. O=c1n(CCCN2CC=CCC2)c2ccccc2n1C1CCN(C(=S)NC(c2ccccc2)c2ccccc2)CC1
C. O=c1n(CCCN2CCCCC2)c2ccccc2n1C1CCN(C(=S)Nc2ccc(N3CCOCC3)cc2)CC1
Given 3 molecules, produce a descending ranking by inhibition at 1 µM. Form field (ranking): labels in requested order.
B, A, C
(B: 65%, A: 25%, C: 0%)
